Reference source: patent US20210087281A1

Target: native mouse MET on living cells (mouse, UniProt P16056 25-1379)
Experiment: cell-based or functional assay
Items are presented alongside their recorded scatter score 0-4, MLP29, 0.004 nM.
Kindly provide the numeric value in score only, without the unit symbol.

Worked examples follow.
- binder: "76G7 chimeric llama-human IgG1 mAb (antibody, V domains shown, llama VH on human IgG1 CH1-CH2-CH3, llama VL on human lambda CL) VH: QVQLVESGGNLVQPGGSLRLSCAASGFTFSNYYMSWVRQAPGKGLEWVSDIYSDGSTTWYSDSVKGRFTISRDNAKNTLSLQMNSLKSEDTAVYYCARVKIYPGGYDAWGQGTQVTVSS VL: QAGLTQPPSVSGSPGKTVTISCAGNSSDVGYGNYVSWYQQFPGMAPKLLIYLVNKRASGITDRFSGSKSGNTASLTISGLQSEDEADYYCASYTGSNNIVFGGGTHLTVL"
  experimentalEndpoint: "scatter score 0-4, MLP29, 0.004 nM"
  uom: "score"
  obsValue: 0
- binder: "71D4 chimeric llama-human IgG1 mAb (antibody, V domains shown, llama VH on human IgG1 CH1-CH2-CH3, llama VL on human lambda CL) VH: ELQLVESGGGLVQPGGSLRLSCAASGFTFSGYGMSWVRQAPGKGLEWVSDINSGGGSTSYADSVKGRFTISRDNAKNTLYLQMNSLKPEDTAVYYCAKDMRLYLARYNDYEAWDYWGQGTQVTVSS VL: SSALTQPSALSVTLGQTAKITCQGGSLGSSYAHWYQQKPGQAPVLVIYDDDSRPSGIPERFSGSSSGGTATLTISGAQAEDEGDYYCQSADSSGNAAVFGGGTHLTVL"
  experimentalEndpoint: "scatter score 0-4, MLP29, 0.004 nM"
  uom: "score"
  obsValue: 0

Now consider the entry below.
Look up and state reported scatter score 0-4, MLP29, 0.004 nM for 72F8 chimeric llama-human IgG1 mAb (antibody, V domains shown, llama VH on human IgG1 CH1-CH2-CH3, llama VL on human lambda CL) VH: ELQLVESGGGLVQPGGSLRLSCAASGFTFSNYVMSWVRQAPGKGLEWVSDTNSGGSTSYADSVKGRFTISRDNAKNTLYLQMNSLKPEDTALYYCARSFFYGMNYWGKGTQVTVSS VL: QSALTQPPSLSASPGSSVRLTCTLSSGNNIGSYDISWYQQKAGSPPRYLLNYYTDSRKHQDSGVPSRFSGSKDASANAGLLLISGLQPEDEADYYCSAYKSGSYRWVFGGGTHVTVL
0
